- Tested on: UACC-257 melanoma
- test: NCI tumour cell line growth inhibition, 48 h; in the data active = GI50 below about 0.43 µM; inactive = the rest
Select the correct class. Options are T (active), F (inactive) and nothing else.

These solved cases illustrate the format of a correct answer.
Test call, this molecule: "C=C(C)[C@@H]1CC[C@]2(C(=O)O)CC[C@]3(C)[C@H](CC[C@@H]4[C@@]5(C)C/C(=C/c6cccc(I)c6)C(=O)C(C)(C)[C@@H]5CC[C@]43C)[C@@H]12"
F

What was the test verdict on Cc1c2oc3c(C)cc(F)c(C(=O)NC4C(=O)NC(C(C)C)C(=O)N5CCCC5C(=O)N(C)CC(=O)N(C)C(C(C)C)C(=O)OC4C)c3nc-2c(C(=O)NC2C(=O)NC(C(C)C)C(=O)N3CCCC3C(=O)N(C)CC(=O)N(C)C(C(C)C)C(=O)OC2C)c(N)c1=O (configuration not stated) ?
T

Any idea what this test logged for "Nc1nc(-c2ccc(Cl)cc2)cc(-c2ccc(Cl)cc2)c1-c1nc2ccccc2o1" ?
F

Lab log entry: "CN1CCN(c2ccc3nc(-c4[nH]ncc4Nc4ncnc5c4OCCCN5)[nH]c3c2)CC1" — outcome as called in the assay?
T

Hi team, can someone confirm the assay call for "COc1ccc2c(c1)C(=O)c1c-2c(N2CCN(C(=O)CNCCN(C)C)CC2)nc2ccccc12" ?
F

New cases:
Outcome logged for "COc1ccc2c(c1)[nH]c(=O)c1c3cc(OC)c(OC)cc3cn21" in this assay:
F

Lab log entry: "COc1ccc(-c2nc(-c3ccccn3)c(-c3ccccn3)n2CC(C)C)cc1OC1CCCC1" — outcome as called in the assay?
F

---

# reported TGI; entries follow
- Test system: HT29 colon
- test: NCI tumour cell line growth inhibition, 48 h

Worked set:
Query "Cc1cc2oc3c(ccc(=O)n3C)c(=O)c2c(C)c1Cl" on HT29 colon; TGI returned: > 100 µM

The recorded TGI with HT29 colon for "Cc1cccc(C(C)C)c1NC(=O)CCl" was > 100 µM

Hey, HT29 colon data for O=C(CC(c1ccccc1)C(C(=O)c1ccncc1)C(CC(=O)c1ccncc1)c1ccccc1)c1ccncc1 (centres undefined) : TGI came out at > 100 µM

// returns TGI for "O=C(c1ccco1)c1nc2cc(C(F)(F)F)ccc2[n+]([O-])c1C(F)(F)F" with HT29 colon; value = > 100 µM

Measured on HT29 colon, "O=C(CCN1CCCC1)Nc1ccc2c(NCCc3ccccc3)c3ccccc3nc2c1" has a documented TGI of 1.75 µM

Assay HT29 colon, sample "Cn1c(COC(=O)NC2CCCCC2)c(COC(=O)NC2CCCCC2)c2ccc3cc(C=O)ccc3c21" , TGI read: > 100 µM

Next:
// TGI (HT29 colon) for "COc1cc2c(c(OC)c1OC)-c1ccc(SC)c(=O)cc1[C@@H](NCc1cccc([N+](=O)[O-])c1)CC2" = < 0.01 µM

TGI value, target or system HT29 colon, for "COc1ccc(N=Nc2c(-c3ccccc3)nn(C(=O)CC(=O)Nc3ccccc3Cl)c2-c2ccccc2)cc1" : > 100 µM

The reported HT29 colon TGI of "CCOC(=O)Cn1c(-c2nonc2NC(=O)c2ccccc2F)nc2ccccc21" is > 100 µM

---

- Tested on: COLO 205 colon
- test: NCI tumour cell line growth inhibition, 48 h; in the data active = GI50 below about 0.43 µM; inactive = the rest
Write down one outcome, taken from active, inactive

The examples below pair each entry with its known result.
Status in this test for "Clc1ccc2nc(Cl)c3ccccc3c2c1" ?
inactive

Any idea what this test logged for "O=C(CCN1CCCC1)Nc1ccc2c(NCCc3ccccc3)c3ccccc3nc2c1" ?
active

Next:
What call does the record list for "O=C(NO)c1ccc(Cn2c(=O)n(-c3ccccc3)c(=O)c3ccccc32)cc1" ?
active

Recorded call for "COc1ccc(C(=O)/C=C/c2cc(-c3ccc4c(c3)OCO4)n[nH]2)cc1OC" ?
inactive

In this assay, the call recorded for "CCSc1ccc([C@@H]2[C@@H](N)C(=O)N2c2cc(OC)c(OC)c(OC)c2)cc1" was what?
active

Would you mind telling me which call this test gave "COc1cc(C(=O)O/N=C(\N)Cc2cccc3ccccc23)cc(OC)c1OC" ?
inactive

Could you check what this test reported for "COc1ccc2c(c1)C(=O)c1c-2c(N2CCN(C(=O)CNCCN(C)C)CC2)nc2ccccc12" ?
inactive

Hi team, can someone confirm the assay call for "CCOC(=O)c1ccc(N(C=O)CCC(=O)CCl)cc1" ?
active

Hey, what did the test say about "O=C(c1ccco1)c1nc2cc(C(F)(F)F)ccc2[n+]([O-])c1C(F)(F)F" ?
inactive

How did this test come out for "CC(C)C[CH2][Ge]([CH2]CC(C)C)([CH2]CC(C)C)[CH2]CC(C)C" ?
inactive

---

- Test system: COLO 205 colon
- test: NCI tumour cell line growth inhibition, 48 h
readout: TGI

Worked cases, TGI given:
Entry under test: "Cn1c(COC(=O)NC2CCCCC2)c(COC(=O)NC2CCCCC2)c2ccc3cc(C=O)ccc3c21" . Its TGI was > 100 µM

Lookup result for CCCC(C)c1c(Cl)nc(Cl)nc1Cl (stereo not given) ; measured TGI: 15.8 µM

In plain terms, "O=C(Nc1ccc(Nc2ccncc2)cc1)c1ccc(Nc2ccnc3ccc([N+](=O)[O-])cc23)cc1[N+](=O)[O-]" has a documented TGI of > 100 µM

So for "O=C1c2cccnc2-c2nccc3c2c1nc1ccc(Br)cc13" , the logged TGI turned out to be 1.6 µM

Field TGI (entry COc1ccc(C2=NNC(c3cc4cc(Br)ccc4nc3Cl)C2)cc1 (stereo not given) ) reads > 25 µM

Measured TGI, "COc1ccc(N=Nc2c(-c3ccccc3)nn(C(=O)CC(=O)Nc3ccccc3Cl)c2-c2ccccc2)cc1" : > 100 µM

TGI reading for COc1ccc([C@H]2c3cc4c(cc3OC(O)(CO)[C@H]2C(=O)O)OCO4)c(OC)c1 (stereo not given in full) (tested in a mixture with another compound) : > 100 µM

The value of TGI measured for the compound NC(CCc1ncc(-c2ccccc2)s1)C(=O)O (stereo not given) turned out to be > 100 µM

New cases:
Data point: "O=C(NO)c1ccc(Cn2c(=O)n(-c3ccccc3)c(=O)c3ccccc32)cc1" ; TGI = 1.39 µM

The compound listed as "N#CCc1nc2cc(C(F)(F)F)ccc2s1" has a reported TGI of > 100 µM

Entry "CN1CCN(c2ccc3nc(-c4[nH]ncc4Nc4ncnc5c4OCCCN5)[nH]c3c2)CC1" — recorded TGI = 0.0157 µM

# TGI (compound: "Cc1ccc(NC(=O)/C(=N/NC(=O)C[N+](C)(C)C)c2nc3ccccc3[nH]c2=O)cc1" ) is > 100 µM

So for "NC(=O)c1sc(-n2cnc3ccc(C(F)(F)F)cc32)cc1OCc1ccccc1Br" , the logged TGI turned out to be 3.44 µM

Query OCC1OC(c2ccccc2)CC1O (stereo not given) yields TGI of > 100 µM

In plain terms, "CC(=O)Nc1ccc(-c2csc(Nc3cccc(-c4csc(-c5ccccc5)n4)c3)n2)cc1" has a documented TGI of > 50 µM

Entry "CC(=O)c1[nH]c(Nc2ccc(C)cc2)c(C(=S)Nc2ccccc2)c1N" , TGI reported as > 100 µM

// sample "O=c1c2cc(I)ccc2nc(SCc2nnco2)n1Cc1ccccc1" , its TGI was > 100 µM

Just so you know, measured TGI for "O=C1/C(=C/c2ccc(Cl)cc2)CN(C(=O)CCN2CCC(=NO)CC2)C/C1=C\c1ccc(Cl)cc1" came out at 1.32 µM

"COc1cc([C@@H]2c3cc4c(cc3[C@@H](c3c(O)cc(O)c5c3O[C@H](c3ccc(O)c(O)c3)[C@H](OC(=O)c3cc(O)c(O)c(O)c3)C5)[C@H]3COC(=O)[C@H]23)OCO4)cc(OC)c1O" yielded TGI of 84.1 µM

The compound CC(=O)N1C(Nc2cccc3nc(C)ccc23)CCN1c1ccccc1 (stereo not given) showed TGI equal to > 10 µM

---

- Tested on: SF-295 CNS
- test: NCI tumour cell line growth inhibition, 48 h
readout: TGI

# count of solved cases: 2
get_value(item= "O=C1CCSC(=S)N1c1ccc(Br)c(Cl)c1" , readout=TGI) returns 73.1 µM

TGI in this record for "CC(=O)OCCOCNC(=S)N/N=C(\C)c1cccs1" : > 100 µM

Next:
// TGI value for "N#CCc1nc2cc(C(F)(F)F)ccc2s1" : > 100 µM

---

- Tested on: SNB-75 CNS
- test: NCI tumour cell line growth inhibition, 48 h
The reader will find reported TGI values listed item by item below.
Record the value in µM, omitting the unit from your answer.

Field: example entries. Status: answers known.
"CC(C)=CCC[C@@H](C)C1=CC(=O)C(C)=C(O)C1=O" yielded TGI of 14

# TGI of OC1(c2ccc(Cl)cc2)c2c(c3ccccc3c3ccccc23)C2=NCCN21 (centres undefined) = 7.52

TGI for O=S1c2ccccc2NC(c2ccc3ccccc3c2)CC1c1ccccc1 (centres undefined) is 86.6

With those in mind, consider the next compound.
For this compound ( COC1C(CO)OC(n2c3c(Cl)cccc3c3c4c(c5c6cccc(Cl)c6[nH]c5c32)C(=O)NC4=O)C(O)C1O (centres undefined) ), measured TGI is 5.87
